Molecular target: Progesterone receptor (Homo sapiens)
Sequence (P06401 whole entry): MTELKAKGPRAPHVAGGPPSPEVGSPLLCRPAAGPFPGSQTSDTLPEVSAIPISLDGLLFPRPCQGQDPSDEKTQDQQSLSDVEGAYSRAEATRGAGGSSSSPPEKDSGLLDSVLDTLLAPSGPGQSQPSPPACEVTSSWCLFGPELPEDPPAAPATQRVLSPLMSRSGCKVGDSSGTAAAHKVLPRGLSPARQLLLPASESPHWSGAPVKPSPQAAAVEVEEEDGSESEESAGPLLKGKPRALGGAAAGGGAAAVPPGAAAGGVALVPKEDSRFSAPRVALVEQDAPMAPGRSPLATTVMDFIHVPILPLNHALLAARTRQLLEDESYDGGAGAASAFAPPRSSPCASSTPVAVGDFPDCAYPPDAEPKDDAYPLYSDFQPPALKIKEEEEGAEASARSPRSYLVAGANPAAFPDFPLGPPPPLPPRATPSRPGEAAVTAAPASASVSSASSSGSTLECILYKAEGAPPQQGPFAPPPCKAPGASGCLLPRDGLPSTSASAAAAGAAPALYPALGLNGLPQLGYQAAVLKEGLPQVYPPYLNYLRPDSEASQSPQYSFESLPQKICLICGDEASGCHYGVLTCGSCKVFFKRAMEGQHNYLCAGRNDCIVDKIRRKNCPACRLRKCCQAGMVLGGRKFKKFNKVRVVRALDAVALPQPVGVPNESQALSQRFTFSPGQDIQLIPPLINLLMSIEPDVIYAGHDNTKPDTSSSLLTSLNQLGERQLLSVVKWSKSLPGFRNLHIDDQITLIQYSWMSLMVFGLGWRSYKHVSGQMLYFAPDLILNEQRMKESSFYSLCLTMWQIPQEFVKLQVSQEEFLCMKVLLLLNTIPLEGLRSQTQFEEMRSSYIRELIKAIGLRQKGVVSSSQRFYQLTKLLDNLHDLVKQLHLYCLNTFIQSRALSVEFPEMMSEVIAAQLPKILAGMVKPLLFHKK
Ok so here's the combined literature set: IC50 for Progesterone receptor (Homo sapiens).
Give just the numeric value; nM need not be written.

Cc1c(NS(C)(=O)=O)cccc1N(Cc1ccccc1)Cc1ccc(Oc2cccc(OCCCC(=O)NCCCC(=O)O)c2)cc1	550
CCC(Cc1cc(C)c(O)c(C)c1)NS(=O)(=O)c1c(C)cc(C)cc1C (centres undefined)	3500
COc1cccc2c1-c1ccc(NS(C)(=O)=O)cc1C(c1ccc(F)cc1)O2 (centres undefined)	1160

# ---- query compound ----
Please fill in: IC50 reported for Cc1noc(=O)c2ccc(NC(=O)C(O)(CC3(c4cc(F)ccc4Cl)CCC3)C(F)(F)F)cc12 (racemic) = 0.2

----------
Ok so here's the combined literature set: IC50 for UniProtKB P06401.
Target: UniProtKB P06401
Sequence (P06401 whole entry): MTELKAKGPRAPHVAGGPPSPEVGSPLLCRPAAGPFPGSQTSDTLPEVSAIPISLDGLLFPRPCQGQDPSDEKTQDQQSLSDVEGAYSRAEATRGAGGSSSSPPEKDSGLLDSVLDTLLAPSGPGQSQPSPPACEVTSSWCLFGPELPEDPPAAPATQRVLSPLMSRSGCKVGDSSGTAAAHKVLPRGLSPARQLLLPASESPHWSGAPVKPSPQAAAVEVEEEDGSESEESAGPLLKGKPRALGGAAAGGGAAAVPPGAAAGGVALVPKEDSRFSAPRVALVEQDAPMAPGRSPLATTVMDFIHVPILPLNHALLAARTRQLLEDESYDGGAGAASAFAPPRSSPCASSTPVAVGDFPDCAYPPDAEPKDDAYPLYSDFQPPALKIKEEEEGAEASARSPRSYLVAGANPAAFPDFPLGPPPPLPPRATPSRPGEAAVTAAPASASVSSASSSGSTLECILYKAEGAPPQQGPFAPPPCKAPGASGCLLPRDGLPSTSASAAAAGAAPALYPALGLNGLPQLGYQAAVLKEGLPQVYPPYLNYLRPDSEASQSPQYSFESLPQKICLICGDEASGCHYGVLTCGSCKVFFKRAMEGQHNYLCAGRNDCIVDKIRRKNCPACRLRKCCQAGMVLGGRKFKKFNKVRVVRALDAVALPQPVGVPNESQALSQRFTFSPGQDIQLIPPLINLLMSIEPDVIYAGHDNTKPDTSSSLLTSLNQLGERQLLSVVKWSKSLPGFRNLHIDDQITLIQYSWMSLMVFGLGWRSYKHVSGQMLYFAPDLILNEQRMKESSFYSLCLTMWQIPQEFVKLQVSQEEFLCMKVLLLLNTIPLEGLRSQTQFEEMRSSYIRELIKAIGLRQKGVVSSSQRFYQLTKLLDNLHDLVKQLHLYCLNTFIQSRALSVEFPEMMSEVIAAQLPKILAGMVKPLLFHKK
Give just the numeric value; µM need not be written.

O=C1COc2ccc(C3=Nn4ccnc4SC3c3ccccc3)cc2N1 (centres undefined)	0.35
CC(C)(CC(O)(Cn1ccc(=O)c2ccccc21)C(F)(F)F)c1cc(F)ccc1O (centres undefined)	0.96
CC[C@@H](Cn1cc(C)c2ccccc21)NS(=O)(=O)c1c(N)cc(Cl)cc1Cl	5
CC1(C)C=C(CSCCc2ccccc2)c2cc(-c3cccc(O)c3Cl)ccc2N1	1.4
CC(C)(CC(O)(Cc1cc2ccncc2[nH]1)C(F)(F)F)c1cc(F)cc2c1OCC2 (centres undefined)	0.45

GET /values?item= Cc1noc(=O)c2ccc(NC(=O)C(O)(CC3CCCCC3)CC(C)(C)c3ccccc3)cc12 (centres undefined) &system= UniProtKB P06401 returns IC50: 0.04

GET /values?item= CCC(Cc1ccc(O)c(C)c1C)NS(=O)(=O)c1c(C)cc(C)cc1C (racemic) &system= UniProtKB P06401 returns IC50: 0.86

GET /values?item= CCCSCC1=CC(C)(C)Nc2ccc(-c3ccccc3OC)cc21 &system= UniProtKB P06401 returns IC50: 1.6

----------
Target: Progesterone receptor (Homo sapiens)
Sequence (P06401 whole entry): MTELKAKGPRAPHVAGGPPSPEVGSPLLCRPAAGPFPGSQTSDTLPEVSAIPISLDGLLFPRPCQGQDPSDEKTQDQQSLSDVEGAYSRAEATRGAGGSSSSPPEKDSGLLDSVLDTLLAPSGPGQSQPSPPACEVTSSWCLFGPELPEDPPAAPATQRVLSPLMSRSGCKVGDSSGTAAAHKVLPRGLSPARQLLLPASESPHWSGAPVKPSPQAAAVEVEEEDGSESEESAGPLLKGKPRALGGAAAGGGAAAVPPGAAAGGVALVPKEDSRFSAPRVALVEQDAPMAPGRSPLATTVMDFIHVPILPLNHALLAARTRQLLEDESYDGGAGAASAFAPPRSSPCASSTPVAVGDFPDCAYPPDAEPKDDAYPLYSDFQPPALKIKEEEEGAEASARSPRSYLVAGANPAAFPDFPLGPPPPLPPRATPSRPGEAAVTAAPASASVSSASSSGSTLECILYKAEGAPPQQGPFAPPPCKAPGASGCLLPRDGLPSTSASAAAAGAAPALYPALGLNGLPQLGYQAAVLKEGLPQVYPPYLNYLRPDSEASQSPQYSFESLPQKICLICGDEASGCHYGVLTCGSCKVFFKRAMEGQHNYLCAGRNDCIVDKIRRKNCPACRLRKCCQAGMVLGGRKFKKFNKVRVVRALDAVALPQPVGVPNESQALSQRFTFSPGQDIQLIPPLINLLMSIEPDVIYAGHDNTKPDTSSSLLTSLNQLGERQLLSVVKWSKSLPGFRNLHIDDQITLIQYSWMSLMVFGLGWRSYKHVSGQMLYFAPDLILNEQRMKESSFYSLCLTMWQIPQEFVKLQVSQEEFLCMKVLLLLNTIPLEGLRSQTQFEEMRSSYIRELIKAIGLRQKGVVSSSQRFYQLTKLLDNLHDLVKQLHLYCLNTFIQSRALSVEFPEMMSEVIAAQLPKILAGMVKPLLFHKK
Ok so here's the combined literature set: IC50 for Progesterone receptor (Homo sapiens).
Give just the numeric value; µM need not be written.

Solved entries:
COc1ccccc1-c1ccc2c(c1)C(C(C)OCCc1cccc(Cl)c1)=CC(C)(C)N2 (centres undefined)	1.9
Cc1ccccc1-n1nc(C(F)(F)F)cc1-c1ccc2c(c1)NC(=O)CO2	4.9
Cc1cc(F)ccc1-n1nc(C(F)(F)F)cc1-c1cc(Cl)c2c(c1)NC(=O)CO2	0.93
C=CCOC(Cc1ccccc1)C1=CC(C)(C)Nc2ccc(-c3ccccc3OC)cc21 (centres undefined)	1.2
C=CCOC(CC)C1=CC(C)(C)Nc2ccc(-c3ccccc3OC)cc21 (centres undefined)	0.33

Please fill in: IC50 reported for C=CCOC(CCc1ccccc1)C1=CC(C)(C)Nc2ccc(-c3ccccc3OC)cc21 (centres undefined) = 1

Please fill in: IC50 reported for COc1ccc(F)cc1-c1ccc2c(c1)C(C(C)OCCc1ccccc1)=CC(C)(C)N2 (centres undefined) = 1.3

Please fill in: IC50 reported for CCC(Cc1cc(C)cc(C)c1)NS(=O)(=O)c1c(C)cc(C)cc1C (centres undefined) = 7.4
